- assayed-system: T1, monomeric human CSF1R ectodomain protein (human, UniProt P07333 20-517)
- T1 construct: also called biotinylated monomeric human CSF1R
- test-method-notes: AlphaScreen competition with mu0301 IgG4(S228P) for biotinylated monomeric human CSF1R
- Method: The AlphaScreen assay (Perkin Elmer) was performed in a 25 μl final volume in 384-well white microtiter plates (Greiner). The reaction buffer contained 1×PBS pH 7.3 (Oxoid, Cat. nr. BR0014G) and 0.05% (v/v) Tween® 20 (Sigma, Cat. nr. P9416). […] The emission of light was measured in the EnVision multilabel plate reader (Perkin Elmer) and analysed using the EnVision manager software. […] The EC50 values were calculated using the […] in GraphPad Prism software (GraphPad Software, La Jolla, Calif.).
Each entry below carries its reported IC50.
Could you give me the number in nM? Just the number is fine.

INSERT INTO results (binder, data_value) VALUES
  ('30E06 (antibody, human IgG4, V domains shown, Library-derived clone; tested as human IgG4(S228P) / human Ckappa IgG; also called 30E6; mAb-3) VH: QVQLVQSGAEVKKPGSSVKVSCKASGYTFTSYYMIWVRQAPGQGLEWMGDINPYNGGTTYAQKFQGRVTITADESTSTAYMELSSLRSEDTAVYYCAREGPYFSNLYVMDYWGQGTLVTVSS VL: EIVLTQSPATLSLSPGERATLSCRASQSVSYEGENYLAWYQQKPGQAPRLLIYAASNLATGIPARFSGSGSGTDFTLTISSLEPEDFAVYYCQLSNEDLLTFGGGTKVEIK', 1.53),
  ('MH5 (antibody, human IgG4, V domains shown, Designer (maximally humanized) clone; tested as human IgG4(S228P)/Ckappa IgG; also called mAb-2) VH: QVQLVQSGAEVKKPGSSVKVSCKASGYTFSSYYMIWVRQAPGQGLEWMGDINPYNGGANYAQKFQGRVTITADESTSTAYMELSSLRSEDTAVYYCAREGPYFSNLYVMDYWGQGTLVTVSS VL: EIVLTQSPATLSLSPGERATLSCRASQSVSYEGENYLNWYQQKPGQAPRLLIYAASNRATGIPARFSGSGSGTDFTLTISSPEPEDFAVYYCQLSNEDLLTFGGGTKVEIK', 2.18);

Could you now consider this next binder?
Please give measured IC50 of the following entry: 29B07 (antibody, human IgG4, V domains shown, Library-derived clone, tested as human IgG4(S228P)/Ckappa IgG; framework residue limits counted on the grafts) VH: QVQLVQSGAEVKKPGSSVKVSCKASGYTFTSYYIIWVRQAPGQGLEWMGDINPYNGGATYAQKFQGRVTITADESTSTAYMELSSLRSEDTAVYYCAREPPYFSNLYVMDYWGQGTLVTVSS VL: EIVLTQSPATLSLSPGERATLSCRASQSVEYEGDNYLNWYQQKPGQAPRLLIYAASNRATGIPARFSGSGSGTDFTLTISSLEPEDFAVYYCQLSNQDLLTFGGGTKVEIK 3.86

Reference for the values: patent US20210301026A1
